Data provenance: PubChem BioAssay AID778

test_target: Cytochrome P450 2C19 (Homo sapiens) (UniProt P33261)
Sequence (P33261 whole entry, looked up): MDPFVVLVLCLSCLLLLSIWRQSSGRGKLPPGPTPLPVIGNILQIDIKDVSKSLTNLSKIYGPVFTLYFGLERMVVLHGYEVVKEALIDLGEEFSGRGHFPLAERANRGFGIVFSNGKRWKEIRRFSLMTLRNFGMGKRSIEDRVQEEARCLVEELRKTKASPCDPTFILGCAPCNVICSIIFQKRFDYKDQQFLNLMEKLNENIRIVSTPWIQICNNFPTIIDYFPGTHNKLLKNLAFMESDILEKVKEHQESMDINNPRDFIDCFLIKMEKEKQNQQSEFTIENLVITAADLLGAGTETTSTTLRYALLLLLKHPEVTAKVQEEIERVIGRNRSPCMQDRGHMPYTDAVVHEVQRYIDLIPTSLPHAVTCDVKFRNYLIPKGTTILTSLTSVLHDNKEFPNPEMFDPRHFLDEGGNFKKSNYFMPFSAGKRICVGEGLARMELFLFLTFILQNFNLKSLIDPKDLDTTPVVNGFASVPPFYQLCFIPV
protocol_notes: blockers of cytochrome P450 2C19 activity – biochemical, luminescence, ADME assay, primary screen (AID 778);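 also: plate controls were negative control wells for no effect and 2.5 mM tranylcypromine positive control for full effect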
protocol_conditions: CYP2C19 Supersomes, luciferin-H EGE luminescence, 30 min; at 5 µM
Hit rate of the full screen: of about 96,000 compounds, about 20,000 (21%) were called active.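 The calls were made as follows: active = CYP2C19 inhibition above a set limit at 5 µM in the primary screen (cut at about 50% in these data); inactive = the rest.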 The list is a sample of the results.
Labels: 1 (yes) = active, 0 (no) = inactive

{"compound": "CCOc1ccc2cc(C#N)c(SCC(=O)OC)nc2c1", "assigned_label": "0 (no)"}
{"compound": "N#Cc1c(C(F)(F)F)cc(-c2ccccc2)nc1SCC(=O)N1CCOCC1", "assigned_label": "0 (no)"}
{"compound": "CCn1c(=O)cc(O)c2ccccc21", "assigned_label": "0 (no)"}
{"compound": "Cc1ccc(C(=O)Nc2c(C#N)c(C)c(C)n2Cc2ccccc2)cc1", "assigned_label": "0 (no)"}
{"compound": "CCCCCN(C(=O)NC(=O)Nc1ccccc1OC)S(C)(=O)=O", "assigned_label": "0 (no)"}
{"compound": "COC(=O)CSC1=C(C#N)C(c2ccccc2OC)C(C(=O)OC)C(=O)N1 (stereo unspecified)", "assigned_label": "1 (yes)"}

----------
test_target: Cytochrome P450 2C19 (Homo sapiens) (UniProt P33261)
protocol_notes: blockers of cytochrome P450 2C19 activity – biochemical, luminescence, ADME assay, primary screen (AID 778);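 also: plate controls were negative control wells for no effect and 2.5 mM tranylcypromine positive control for full effect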
protocol_conditions: CYP2C19 Supersomes, luciferin-H EGE luminescence, 30 min; at 5 µM; hits give high values
The whole screen tested about 96,000 compounds, of which about 20,000 (21%) were called active. Only a sample is shown.
Some compounds, each annotated with its measured inhibition.

{"compound": "CCOC(=O)/C=c1\\s/c(=C\\c2ccccc2OC)c(=O)n1CC(=O)N1CCOCC1", "test_target": "Cytochrome P450 2C19 (Homo sapiens) (UniProt P33261)", "unit_abbreviation": "%", "inhibition": -9.3}
{"compound": "CCn1ncc(C2=NOC(C(=O)N3CCN(c4ccccc4)CC3)C2)c1C (stereo unspecified)", "test_target": "Cytochrome P450 2C19 (Homo sapiens) (UniProt P33261)", "unit_abbreviation": "%", "inhibition": -20.9}
{"compound": "O=C(Nc1cccc(Cl)c1)Nc1nnc(-c2ccccc2)o1", "test_target": "Cytochrome P450 2C19 (Homo sapiens) (UniProt P33261)", "unit_abbreviation": "%", "inhibition": 12.7}
{"compound": "CCCCC(=O)N/N=C(\\C)CC(=O)Nc1cc(Cl)ccc1OC", "test_target": "Cytochrome P450 2C19 (Homo sapiens) (UniProt P33261)", "unit_abbreviation": "%", "inhibition": 6.1}
{"compound": "COc1ccc(Cl)cc1NC(=O)CN(C)C(=O)CNC(=O)C12CC3CC(CC(C3)C1)C2", "test_target": "Cytochrome P450 2C19 (Homo sapiens) (UniProt P33261)", "unit_abbreviation": "%", "inhibition": 67.9}
{"compound": "Cn1c2ccccc2n2c(=O)c(=O)n(CC(=O)c3ccc(F)cc3)nc12", "test_target": "Cytochrome P450 2C19 (Homo sapiens) (UniProt P33261)", "unit_abbreviation": "%", "inhibition": -11.2}
{"compound": "O=C(CNCCO)NC12CC3CC(CC(C3)C1)C2", "test_target": "Cytochrome P450 2C19 (Homo sapiens) (UniProt P33261)", "unit_abbreviation": "%", "inhibition": 0.8}
{"compound": "CCCC(=O)N1c2ccccc2NC2=C(C(=O)CCC2)C1c1ccc(F)cc1 (stereo unspecified)", "test_target": "Cytochrome P450 2C19 (Homo sapiens) (UniProt P33261)", "unit_abbreviation": "%", "inhibition": 48.1}
{"compound": "CC1=C(C)CC2C(=O)N(c3cccc4ccccc34)C(=O)C2C1 (stereo unspecified)", "test_target": "Cytochrome P450 2C19 (Homo sapiens) (UniProt P33261)", "unit_abbreviation": "%", "inhibition": 37.5}
{"compound": "O=C(NCc1ccccc1)[C@@H]1CSC2c3ccccc3C(=O)N21 (stereo partly specified)", "test_target": "Cytochrome P450 2C19 (Homo sapiens) (UniProt P33261)", "unit_abbreviation": "%", "inhibition": 81.2}
{"compound": "Cc1ccc(CNC(=O)C2CCCN2C(=O)NCc2ccccc2)cc1 (stereo unspecified)", "test_target": "Cytochrome P450 2C19 (Homo sapiens) (UniProt P33261)", "unit_abbreviation": "%", "inhibition": 0.7}
